System: COLO 205 colon
Assay: NCI-60 one-dose screen, 48 h
Settings: 10 µM unless noted
Compounds without any hit were thinned out: in the full panel of roughly 83,000, 20% have a hit. Active and inactive are the calls of the source. Rule for the calls: active = growth percent below 10; inactive = the rest.
Give one outcome, nothing more. List: active, inactive

Use the examples below as a reference point.
>>> group("CN=C(NC)N/N=C(C)\\C=N\\NC(=NC)NC")
"inactive"
>>> group("O=C1C2C3C=CC(O3)C2C(=O)N1Nc1ccccc1 (stereo not drawn)")
"inactive"
>>> group("COc1cc(C2CC(=O)Nc3c2cc(Br)c2ccccc32)cc(Br)c1OC (stereo not drawn)")
"inactive"

## Input So what was the verdict on CCC(O)C(C)(C)C (stereo not drawn) in this test?
## Output inactive

## Input What was the test verdict on O=C1CC(=O)N(c2ccccc2)O1 ?
## Output inactive

----------
Tested on: DU-145 prostate
Assay: NCI-60 one-dose screen, 48 h
Conditions: 10 µM unless noted
Compounds without any hit were thinned out: in the full panel of roughly 83,000, 20% have a hit. Calls of active or inactive are those of the source. The calls were made as follows: active = growth percent below 10; inactive = the rest.
Returns: one label drawn from 1 (active), -1 (inactive)

Worked cases, answers included:
>>> group("O=C(/C=C/c1ccc(O)c(O)c1)N1CCN(c2ccc(Cl)cc2)CC1")
-1
>>> group("CC(=O)Nc1ccc2c(c1)Cc1c(F)c(F)c(F)c(F)c1-2")
-1
>>> group("COc1cc2c(-c3nc4cc(Cl)c(F)cc4s3)cc(=O)oc2c(C)c1OC")
1
>>> group("Nc1nc(SCC2(CCl)COC2)c2[nH]cnc2n1")
-1
>>> group("c1ccc(-c2nn[nH]n2)c(-c2ccc(CN3CCN(c4nsc5ccccc45)CC3)cc2)c1")
-1

## Input Tell me the assay call for Nc1ccc(C2=NN(c3ccccc3)C(c3ccc(Cl)cc3)C2)cc1 (stereo unspecified) please.
## Output -1

## Input Recorded test outcome, item CN(C)c1ccc2[nH]c3c(C(N)=O)cc(=O)c(=O)c=3oc2c1
## Output -1

----------
System: CCRF-CEM leukemia
Test: NCI-60 one-dose screen, 48 h (100 = growth as untreated, 0 = no growth, -100 = all killed)
Settings: 10 µM unless noted
This is part of a sample that, as a whole, favours compounds with a hit. Of some 83,000 tested, about 20% had one in any assay. Active and inactive are the calls of the source. Rule for the calls: active = growth percent below 10; inactive = the rest.
Assay endpoint: growth

>>> test_result("Cc1c(C(N)=O)sc2nc(SCC(=O)Nc3ccc(Cl)cc3)n(-c3ccccc3)c(=O)c12")
"86.3% (inactive)"
>>> test_result("Cc1cc(NC(=O)Nc2cc(Cl)ccc2C)no1")
"109% (inactive)"
>>> test_result("Cc1nc2cc(NC(=O)CN3CCN(CCN4C(=O)c5cccc6cccc(c56)C4=O)CC3)ccc2s1")
"31.7% (inactive)"

Please state growth for every compound in the list that follows.
1. Cc1ccccc1-c1cc(Cc2ccccc2O)c(=O)[nH]n1
2. O=C(/C=C/c1ccccc1Cl)c1ccc(O)cc1
3. Cc1[nH]n(C(N)=S)c(=O)c1N=Nc1ccc(F)c(Cl)c1

## Output
1: -49.5% (active); 2: 30.6% (inactive); 3: -8.05% (active)

----------
Test system: HCT-15 colon
Assay: NCI-60 one-dose screen, 48 h (100 = growth as untreated, 0 = no growth, -100 = all killed)
Conditions: 10 µM unless noted
Method: Growth inhibition of the HCT-15 human tumor cell line is measured as a screen for anti-cancer activity. Cells are grown in 96 well plates and exposed to the test compound for 48 hours. Compounds are tested at a single concentration, which is 10^-5 M for most compounds. The reported endpoint is percent growth (GI% or GIPRCNT), where numbers from 0 - 100% represent growth inhibition, and numbers from -100% - 0 represent cell death. For example, a value of 40 represents 60% growth inhibition. […]
This is part of a sample that, as a whole, favours compounds with a hit. Of some 83,000 tested, about 20% had one in any assay. Active and inactive are the calls of the source. Rule for the calls: active = growth percent below 10; inactive = the rest.
Assay endpoint: growth

Please review the following examples before continuing.
>>> test_result("O=c1c(O)cccn1CCCNCCCN(CCCn1cccc(O)c1=O)CCCn1cccc(O)c1=O")
"99.2% (inactive)"
>>> test_result("COc1ccc(-c2nc3sccn3c2-c2ccnc(S(C)(=O)=O)n2)cc1")
"84.3% (inactive)"
>>> test_result("N=c1ccn2c(n1)O[C@@H]1[C@@H](O)[C@H](CO)O[C@@H]12")
"64.4% (inactive)"
>>> test_result("COc1cc2c(cc1OC)C1CCN3C(=O)CCC3N1CC2 (stereo not drawn)")
"110% (inactive)"
>>> test_result("COc1cc(/C=C/C(=O)N2CCN(C(=O)/C=C/c3ccccc3)CC2)cc(OC)c1OC")
"109% (inactive)"
>>> test_result("N#Cc1c(N2CCOCC2)nc2sc3cc(Cl)ccc3n2c1=N")
"102% (inactive)"
>>> test_result("Oc1[nH]c2ccc(Cl)cc2c1/C=c1/ccc2c(c1)N=C(c1ccc(C(F)(F)F)cc1)N=2")
"54.1% (inactive)"
>>> test_result("CCOC(=O)/C=C(/C)Sc1cc(O)c2ccccc2c1O")
"-12.6% (active)"

Dear colleague, could you send me growth for each of the items below? Thanks.
1. Cn1c(=O)c2c(nc(Br)n2CCC(=O)Nc2ccc(F)cc2)n(C)c1=O
2. CN(C)c1ccc2c(c1)/C(=N/O)c1ccccc1-2
3. O=C(Nc1ncc([N+](=O)[O-])s1)c1cccc([N+](=O)[O-])c1
4. O=C1c2ccccc2-c2c1nc1ccccc1[n+]2[O-]
5. COc1ccc(Cn2cc3c(c2-c2ccccc2)CCc2cncnc2-3)cc1
6. Clc1ncn[nH]1

## Output
["108% (inactive)", "78.7% (inactive)", "47.8% (inactive)", "101% (inactive)", "45.3% (inactive)", "98.6% (inactive)"]

I need growth for every entry listed below, if you could help.
1. CCCCCCC/C(=N\N=C(N)N)c1ccc(O)cc1
2. COc1ccc(-c2c3c(nn2-c2ccc(N)cc2)CCc2cnoc2-3)cc1OC
3. COc1ccc(C2=NNC(c3cc(Cc4ccc(O)c(C5CC(c6ccc(OC)cc6)=NN5)c4)ccc3O)C2)cc1 (stereo not drawn)
4. C=C1CC[C@@H]2[C@](C)(COC(C)=O)[C@H](OC(C)=O)CC[C@@]2(C)[C@@H]1CC(Nc1ccc(S(=O)(=O)Nc2cc(C)on2)cc1)C1=CCOC1=O (stereo partly drawn)
5. CCN1CCN(c2cc(-c3cn[nH]c3-c3cc(C)cc(OC)c3)nc(-c3cccnc3)n2)CC1
6. COc1ccc2[nH]c(-c3ccccc3)cc2c1
7. CCCC[N+](CCCC)=c1ccc2nc3c(C)cc(N(CC)CC)cc3sc-2c1

## Output
["64% (inactive)", "85.6% (inactive)", "43.3% (inactive)", "0.176% (active)", "19.2% (inactive)", "97% (inactive)", "-33.5% (active)"]

// input: 5 compounds below; output: growth for each
1. CC(C)(C)c1ccc(S(=O)(=O)O)s1
2. O=C(COC(=O)[C@H](C[Se][Se]C[C@H](NC(=O)c1ccc(Br)cc1F)C(=O)OCC(=O)c1ccc(F)cc1)NC(=O)c1ccc(Br)cc1F)c1ccc(F)cc1
3. NC(=O)c1ccccc1NC(=O)c1ccccc1Cl
4. C=CC1=C(C(=O)O)N2C(=O)[C@@H](NC(=O)/C(=N\O)c3csc(N)n3)[C@H]2SC1 (stereo in doubt)
5. COc1cc2c(c(OC)c1OC)CCc1cnoc1-2

## Output
1. 107% (inactive)
2. -42.6% (active)
3. 95.6% (inactive)
4. 105% (inactive)
5. 102% (inactive)

----------
Test system: NCI-H226 lung
Assay: NCI-60 one-dose screen, 48 h
Conditions: 10 µM unless noted
The panel holds about 83,000 compounds, 20% with a hit somewhere; the sample as a whole holds those more often. Active and inactive are the calls of the source. The calls were made as follows: active = growth percent below 10; inactive = the rest.
Respond only with the outcome that fits, drawn from active, inactive

>>> group("N#Cc1cnc2cc(OC[C@H](O)CO)c(NC(=O)CC3CSSC3)cc2c1Nc1ccc(OCc2cccc(F)c2)c(Cl)c1")
"active"

## Input // param item: Cn1cc(-c2csc(-c3cn(C)c4ncccc34)n2)c2cc(Br)cnc21 ; yields the recorded call
## Output inactive

----------
Test system: NCI-H522 lung
Assay: NCI-60 one-dose screen, 48 h (100 = growth as untreated, 0 = no growth, -100 = all killed)
Conditions: 10 µM unless noted
The panel holds about 83,000 compounds, 20% with a hit somewhere; the sample as a whole holds those more often.
Please map values of growth to classes as shown: Low (below 30%), Medium (30% to below 90%), High (90% or more)

Worked set:
>>> group("N#CCNc1ccccc1N")
"Medium"
>>> group("Nc1nc(Cl)c2[nH]cnc2n1")
"High"
>>> group("NC(N)=NN=c1c(=O)c2ccccc2c1=O")
"Medium"
>>> group("Cc1[nH]n(C(N)=S)c(=O)c1N=Nc1ccc(F)c(Cl)c1")
"High"
>>> group("CSc1ccc2c(c1)N(CCC1CCCCN1C)c1ccccc1S2 (stereo unspecified)")
"Medium"

Moving on to another compound below.
## Input Where would Cc1ccccc1NC(=O)c1cc2ccccc2cc1O land among the classes by reported growth?
## Output Low
